Observed IC50, system Acetylcholinesterase (Electrophorus electricus, UniProt O42275).
Answer with a number only, understood to be in µM.

// solved cases for IC50 follow
O=C(NCc1cnnn1Cc1cccc(Cl)c1)c1cc2ccccc2oc1=O; 92.8
COc1cccc2cc(C(=O)NCc3cn(Cc4cccc(Cl)c4Cl)nn3)c(=O)oc12; 33.8
COc1cccc2cc(C(=O)NCc3cn(Cc4ccc(Cl)c(Cl)c4)nn3)c(=O)oc12; 25.5

Then there is this molecule:
Req: Report IC50 for "COc1cccc2cc(C(=O)NCc3cn(Cc4ccccc4C)nn3)c(=O)oc12" please.
Resp: 24.1

---

Let's look at some compounds and their measured pIC50.
- target-entity: Acetylcholinesterase (Electrophorus electricus, UniProt O42275)
- Sequence (O42275 whole entry): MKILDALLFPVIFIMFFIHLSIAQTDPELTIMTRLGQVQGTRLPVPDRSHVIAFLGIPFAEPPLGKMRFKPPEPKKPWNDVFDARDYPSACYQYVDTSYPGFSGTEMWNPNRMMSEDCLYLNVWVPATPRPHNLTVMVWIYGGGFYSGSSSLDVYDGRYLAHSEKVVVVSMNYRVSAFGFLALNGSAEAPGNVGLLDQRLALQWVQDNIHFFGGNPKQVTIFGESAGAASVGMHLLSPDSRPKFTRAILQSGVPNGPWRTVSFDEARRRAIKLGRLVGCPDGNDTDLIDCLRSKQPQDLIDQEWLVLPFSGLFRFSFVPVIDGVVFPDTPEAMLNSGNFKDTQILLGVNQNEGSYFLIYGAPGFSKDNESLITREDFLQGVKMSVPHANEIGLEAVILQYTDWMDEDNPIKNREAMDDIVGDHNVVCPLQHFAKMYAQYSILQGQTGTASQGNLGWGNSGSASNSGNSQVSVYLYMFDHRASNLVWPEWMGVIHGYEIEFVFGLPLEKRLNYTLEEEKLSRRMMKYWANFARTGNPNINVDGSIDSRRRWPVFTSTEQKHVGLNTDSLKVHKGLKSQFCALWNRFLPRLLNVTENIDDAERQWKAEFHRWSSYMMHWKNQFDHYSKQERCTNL
pIC50 is defined as minus the log10 of a concentration measured in mol/L.

Cc1ccccc1Cn1nncc1CNC(=O)c1cc2ccccc2oc1=O; 4.10
O=C(NCc1cnnn1Cc1cccc(F)c1)c1cc2ccccc2oc1=O; 4.32

Req: Report pIC50 for "O=C(NCc1cnnn1Cc1cccc(Cl)c1Cl)c1cc2ccccc2oc1=O" please.
Resp: 4.69

Req: Then what about the compound "O=C(NCc1cnnn1Cc1ccccc1Cl)c1cc2ccccc2oc1=O" ?
Resp: 4.47

Req: Then what about the compound "O=C(NCc1cnnn1Cc1ccc(Cl)c(Cl)c1)c1cc2ccccc2oc1=O" ?
Resp: 4.78

Req: Then what about the compound "COc1cccc2cc(C(=O)NCc3cn(Cc4ccccc4Cl)nn3)c(=O)oc12" ?
Resp: 4.81

---

- target-entity: Carboxylic ester hydrolase (Equus caballus, UniProt Q9N1N9)
- Sequence (Q9N1N9 whole entry): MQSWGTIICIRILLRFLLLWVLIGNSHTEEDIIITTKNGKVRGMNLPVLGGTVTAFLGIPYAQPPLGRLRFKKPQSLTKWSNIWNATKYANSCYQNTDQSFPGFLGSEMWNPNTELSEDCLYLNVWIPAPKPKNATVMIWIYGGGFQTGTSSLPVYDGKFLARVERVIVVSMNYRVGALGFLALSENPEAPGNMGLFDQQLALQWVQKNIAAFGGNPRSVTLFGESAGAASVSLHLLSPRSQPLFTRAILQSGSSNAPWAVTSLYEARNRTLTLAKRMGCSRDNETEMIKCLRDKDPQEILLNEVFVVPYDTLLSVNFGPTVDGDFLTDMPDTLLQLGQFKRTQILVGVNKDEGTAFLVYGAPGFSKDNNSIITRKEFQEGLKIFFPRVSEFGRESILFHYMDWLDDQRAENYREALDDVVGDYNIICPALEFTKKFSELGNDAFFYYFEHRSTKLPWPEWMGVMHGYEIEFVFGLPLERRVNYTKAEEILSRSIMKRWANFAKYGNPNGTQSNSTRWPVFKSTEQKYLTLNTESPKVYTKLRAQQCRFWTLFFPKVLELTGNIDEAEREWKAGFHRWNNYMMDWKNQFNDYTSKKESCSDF
- protocol-summary: AChE and BChE Inhibition Assay
- conditions-used: pH 8; 25 °C
pIC50: −log10 of the molar value.
Let's look at some compounds and their measured pIC50.

// solved cases for pIC50 follow
O=C(NCc1cnnn1Cc1cccc(Cl)c1)c1cc2ccccc2oc1=O; < 7.00
O=C(NCc1cnnn1Cc1cccc(F)c1)c1cc2ccccc2oc1=O; < 4.00
O=C(NCc1cnnn1Cc1cccc(Cl)c1Cl)c1cc2ccccc2oc1=O; 4.17
COc1cccc2cc(C(=O)NCc3cn(Cc4ccc(Cl)c(Cl)c4)nn3)c(=O)oc12; < 4.00

Req: Report pIC50 for "COc1cccc2cc(C(=O)NCc3cn(Cc4ccccc4C)nn3)c(=O)oc12" please.
Resp: < 4.00

Req: Then what about the compound "Cc1ccccc1Cn1nncc1CNC(=O)c1cc2ccccc2oc1=O" ?
Resp: < 4.00

Req: Then what about the compound "O=C(NCc1cnnn1Cc1ccc(Cl)c(Cl)c1)c1cc2ccccc2oc1=O" ?
Resp: < 4.00

Req: Then what about the compound "Cc1ccc(Cn2nncc2CNC(=O)c2cc3ccccc3oc2=O)cc1" ?
Resp: < 4.00

Req: Then what about the compound "O=C(NCc1cnnn1Cc1ccccc1Cl)c1cc2ccccc2oc1=O" ?
Resp: < 4.00

Req: Then what about the compound "COc1cccc2cc(C(=O)NCc3cn(Cc4cccc(Cl)c4Cl)nn3)c(=O)oc12" ?
Resp: < 4.00

Req: Then what about the compound "O=C(NCc1cnnn1Cc1ccc(F)cc1)c1cc2ccccc2oc1=O" ?
Resp: < 4.00

Req: Then what about the compound "O=C(NCc1cnnn1Cc1ccccc1)c1cc2ccccc2oc1=O" ?
Resp: < 4.00

Req: Then what about the compound "COc1cccc2cc(C(=O)NCc3cn(Cc4ccccc4Cl)nn3)c(=O)oc12" ?
Resp: 4.02

The measurements presented in this section are drawn from BindingDB's records for doi:10.1016/j.bioorg.2016.11.011.
